The origin of these recorded values is ChEMBL document CHEMBL3045931.

System: Mycobacterium tuberculosis
Experiment: Antitubercular activity against Mycobacterium tuberculosis assessed as growth inhibition […]
Type: functional, organism-based
Settings: read-out: log(1/IC50) (converted)
Just a reminder that ties go to 0: only IC50 strictly below 10 µM counts as 1.

[[record]]
smi = "CC(C)c1ccc(C(=O)N2CCN(c3cccc(Cl)c3)CC2)cc1"
experimental_system = "Mycobacterium tuberculosis"
class_label = 0

[[record]]
smi = "O=C(c1ccc(Cl)c(Cl)c1)N1CCN(c2cccc(Cl)c2)CC1"
experimental_system = "Mycobacterium tuberculosis"
class_label = 1

[[record]]
smi = "Cc1ccc(C(=O)N2CCN(C(c3ccc(F)cc3)c3ccc(F)cc3)CC2)cc1"
experimental_system = "Mycobacterium tuberculosis"
class_label = 1


Is IC50 of "O=C(c1cccc(Cl)c1)N1CCN(c2cccc(Cl)c2)CC1" strictly below 10 µM?
1

Is IC50 of "CC(C)(C)c1ccc(C(=O)N2CCN(c3cccc(Cl)c3)CC2)cc1" strictly below 10 µM?
0
